Hello, the source for this data is PubChem BioAssay AID485297, in case you need it.

test summary: qHTS Assay for Rab9 Promoter Activators; further: nearly all actives have a fitted effect of over 60% in size
measurement context: Huh7 Rab9 promoter-luciferase reporter, luminescence, 24 h; series mostly up to 9.22 µM
Excerpt: NIH Chemical Genomics Center [NCGC] NIH Molecular Libraries Probe Production centers Network [MLPCN] […] The Rab9 promoter is cloned in front of the luciferase reporter gene, therefore […] promoter activation results in luciferase expression. […] 7.Read using the luminescence protocol on the ViewLux plate reader (Perkin Elmer).
Hit rate of the full screen: of about 320,000 compounds, about 9,100 (2.8%) were called active. About 3% were inconclusive and are not listed. The call rests on the fitted dose curve; in most records, active means well fitted activation curve with a large enough effect; inconclusive means small, poorly fitted or top-dose-only effect; inactive means no such curve, though single readings can be large or run the other way. The sample holds actives, similar compounds and a random draw of the others, so the mix is not that of the screen.
Return exactly one item of Yes = active, No = inactive

Qu. Give the logged outcome of this assay for the following compound: CC(C)C(=O)Nc1ccc2oc(=O)ccc2c1
Ans. No

Qu. For Cc1ccc(NC(=O)c2cccc(S(=O)(=O)N3CCCc4ccccc43)c2)nc1 then?
Ans. No

Qu. What do we get for COc1ccccc1CNS(=O)(=O)c1cc(C(=O)NCc2ccccn2)c(Cl)cc1Cl ?
Ans. No

Qu. Next compound: COc1ccc(CCC(=O)N2CCN(S(=O)(=O)c3ccc(OC)cc3)CC2)cc1
Ans. No

Qu. Quick one: COc1ccc(C2/C(=C(/O)c3ccccc3)C(=O)C(=O)N2C)c(OC)c1 (stereo not drawn)
Ans. No

Qu. Field entry: COc1ccc(/C(O)=C2/C(=O)C(=O)N(c3nc(C)c(C)s3)C2c2ccco2)cc1 (stereo not drawn)
Ans. No

Qu. // same read-out, input: N#Cc1ccc(C(=O)OCC(=O)NC(=O)NC2CCCCC2)cc1
Ans. No

Qu. What do we get for COc1cc(C(=O)OCc2ccc([N+](=O)[O-])cc2)cc(OC)c1OC ?
Ans. No

Qu. Moving on to CCC(=O)Nc1ccc2nn(-c3ccc(F)cc3)nc2c1
Ans. Yes

Qu. What do you have for COc1ccc(CNC(=O)c2ccc3oc(C(C)C)nc3c2)cc1 ?
Ans. Yes

Qu. Also check C(=N/Nc1cc(N2CCOCC2)nc(N2CCOCC2)n1)/c1ccccc1
Ans. No

Qu. Quick one: Cc1ccccc1N/N=C/c1ccc(N2CCOCC2)cc1
Ans. Yes

Qu. Also check Cc1ccc(-n2nc3ccc(NC(=O)/C=C/c4ccco4)cc3n2)cc1C
Ans. No
